assay: Ulcerogenicity in albino rat assessed as average severity score at 18 mg/kg, po administrated once daily for 3 successive days and measured after 6 hrs from last dose (reference value: 0); assay type: toxicity, organism-based; conditions: in vivo
observed.property: Activity

| cpd.smiles | meas.value |
| --- | --- |
| Cc1ccc(-c2cc(C(F)(F)F)nn2-c2ccc(S(N)(=O)=O)cc2)cc1 | 0 |
| CC(C)NS(=O)(=O)c1ccccc1C(=O)N1N=C(c2ccccc2)CC1=O | 0.2 |
| O=C(N/N=C/c1ccc(F)cc1)C(C(=O)N/N=C/c1ccc(F)cc1)N1C(=O)c2ccccc2S1(=O)=O | 1.2 |
| Nn1c(S)nnc1-c1ccccc1S(=O)(=O)NCc1ccccc1 | 3.6 |
| COc1ccc2c(c1)c(CC(=O)O)c(C)n2C(=O)c1ccc(Cl)cc1 | 4.8 |
| Cc1cc(-c2ccccc2)n(C(=O)C(C(=O)n2nc(C)cc2-c2ccccc2)N2C(=O)c3ccccc3S2(=O)=O)n1 | 0.2 |
| Cc1cc(-c2ccccc2)n(C(=O)c2ccccc2S(=O)(=O)NC(C)C)n1 | 0.2 |
